Value source: patent US20030083375A1

- targetSystem: FP receptor (Rattus norvegicus, UniProt P43118)
- Construct: Two cell lines containing the FP receptor have been extensively characterized by this method
- Sequence (P43118 whole entry): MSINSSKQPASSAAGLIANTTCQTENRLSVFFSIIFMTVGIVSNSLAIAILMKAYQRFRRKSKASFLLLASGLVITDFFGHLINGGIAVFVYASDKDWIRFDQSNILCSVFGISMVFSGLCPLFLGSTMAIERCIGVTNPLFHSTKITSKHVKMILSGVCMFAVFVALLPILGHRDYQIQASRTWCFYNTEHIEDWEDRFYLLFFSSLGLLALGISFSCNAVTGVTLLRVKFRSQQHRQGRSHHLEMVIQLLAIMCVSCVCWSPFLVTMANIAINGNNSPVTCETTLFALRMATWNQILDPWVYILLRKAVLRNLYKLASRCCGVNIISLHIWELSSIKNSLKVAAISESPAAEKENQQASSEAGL
- experimentNotes: Antagonism of fluprostenol-stimulated [3H]IPs production in A7r5 cells
- conditionInfo: fixed fluprostenol concentration about 10 times the agonist EC50, read-out: Ki (method of FIG. 2, antagonist concentration varied)
recordedMetric: pKi
Please report pKi as the negative decimal logarithm of the molar concentration, giving only the number.

stdin: Fill in the blank: the reported pKi of `O=C(O)CCC/C=C\C[C@@H]1[C@@H](/C=C/[C@H](O)C2Cc3ccccc3C2)[C@@H](F)C[C@@H]1O` is ____.
stdout: 6.37
